assay: clinical; type: in vivo, human; conditions: male, human, in vivo; 120 mg group; geometric mean; read-out: AUC0-inf [ng/mL]
Reported metric: AUC(0-inf)

IN: Which AUC(0-inf) value is on record for CCCCCCCC(=O)OC[C@@H](O)[C@@H](OC)[C@@H]1OC(C(=O)O)=C[C@H](NC(=N)N)[C@H]1NC(C)=O [Medicinal component] ?
OUT: 1560 ng·h/mL

---

assay: clinical; format: in vivo, human; conditions: male, human, in vivo; 80 mg group; geometric mean
Reported metric: half-life

IN: Which half-life value is on record for CCCCCCCC(=O)OC[C@@H](O)[C@@H](OC)[C@@H]1OC(C(=O)O)=C[C@H](NC(=N)N)[C@H]1NC(C)=O ?
OUT: 5.66 h

---

assay: clinical; assay type: in vivo, human; conditions: male, human, in vivo; 120 mg group; geometric mean
Reported metric: half-life (h)
Write the number in h without appending the unit.

IN: Which half-life value is on record for CCCCCCCC(=O)OC[C@@H](O)[C@@H](OC)[C@@H]1OC(C(=O)O)=C[C@H](NC(=N)N)[C@H]1NC(C)=O ?
OUT: 2.87

---

assay: clinical; assay type: in vivo, human; settings: male, human, in vivo; 80 mg group; geometric mean
Reported metric: Cmax (ng/mL)
Write the number in ng/mL without appending the unit.

IN: Which Cmax value is on record for CCCCCCCC(=O)OC[C@@H](O)[C@@H](OC)[C@@H]1OC(C(=O)O)=C[C@H](NC(=N)N)[C@H]1NC(C)=O ?
OUT: 335

---

assay: clinical; type: in vivo, human; settings: male, human, in vivo, inhaled or intranasal; 120 mg group, single inhaled dose of medicinal component; plasma; median
Reported metric: Tmax (min)
Write the number in min without appending the unit.

IN: Which Tmax value is on record for CCCCCCCC(=O)OC[C@@H](O)[C@@H](OC)[C@@H]1OC(C(=O)O)=C[C@H](NC(=N)N)[C@H]1NC(C)=O ?
OUT: 30

---

test: clinical; assay type: in vivo, human; details: male, human, in vivo; 80 mg group; geometric mean; read-out: AUC0-inf [ng/mL]
Reported metric: AUC(0-inf) (ng·h/mL)
Write the number in ng·h/mL without appending the unit.

IN: Which AUC(0-inf) value is on record for CCCCCCCC(=O)OC[C@@H](O)[C@@H](OC)[C@@H]1OC(C(=O)O)=C[C@H](NC(=N)N)[C@H]1NC(C)=O ?
OUT: 1270
